Assay: solvent given as SMILES
Details: in Cc1ccccc1
Result type: absorption maximum (nm)
Your answer should be a plain number; it is taken to be in nm.

Prompt: What value of absorption maximum has been reported for the following compound? CN(C)c1ccc(/C=C/C=C2\CC/C(=C\C=C\c3ccc(N(C)C)cc3)C2=O)cc1
Completion: 495

Prompt: Tell me the measured absorption maximum of O=c1cc(COc2ccc(I)cc2)c2c(ccc3ccccc32)o1 , please.
Completion: 350

Prompt: // lookup absorption maximum for CCCCCCCCCCCCC(CCCCCCCCCC)Cn1c2cc(/C=C/C=C(C#N)C#N)c3cccc4c5cccc6c(/C=C/C=C(C#N)C#N)cc1c(c65)c2c34 (stereo not given)
Completion: 597

Prompt: Returns the measured absorption maximum for the input compound. Input: c1ccc(C2CCN3COc4c5ccccc5c5c6c7c(c2c3c46)C(c2ccccc2)CCN7CO5)cc1 (stereo not given)
Completion: 406

Prompt: What does the record list as absorption maximum for CCCCOC(=O)c1cc(Oc2ccc(OC)cc2)c2c3c(Cl)cc4c5c(cc(Cl)c(c6c(Oc7ccc(OC)cc7)cc(C(=O)OCCCC)c1c26)c53)C(=O)N(c1c(C(C)C)cccc1C(C)C)C4=O ?
Completion: 531

Prompt: Fill in: absorption maximum of COCCC1=Cc2nc1ccc1[nH]c(c3nc(ccc4[nH]c2cc4CCOC)C(CCOC)=C3)c2c(C(=O)OC)c(C(=O)O)ccc12 is ___
Completion: 636

Prompt: Need absorption maximum of O=P1(c2ccccc2)C(c2ccc(N(c3ccccc3)c3ccccc3)cc2)=Cc2cc3ccccc3cc21 (stereo not given) , thanks.
Completion: 412

Prompt: # lookup: absorption maximum of CC(C)(C)c1ccc2c(c1)c1cc(C(C)(C)C)ccc1n2-c1c(C#N)c(-n2c3ccc(C(C)(C)C)cc3c3cc(C(C)(C)C)ccc32)c(-n2c3ccc(C(C)(C)C)cc3c3cc(C(C)(C)C)ccc32)c(-n2c3ccc(C(C)(C)C)cc3c3cc(C(C)(C)C)ccc32)c1-n1c2ccc(C(C)(C)C)cc2c2cc(C(C)(C)C)ccc21
Completion: 427.95

Prompt: Look up absorption maximum: CN(C)c1ccc(/C=C/C=C2\CCCC2=O)cc1
Completion: 409

Prompt: Can you share its absorption maximum? I mean this compound: COc1cc(/C=C/c2cc(OC)c(-c3nc(-c4ccccc4)c(-c4ccccc4)[nH]3)cc2OC)c(OC)cc1/C=C/c1cc(OC)c(-c2nc(-c3ccccc3)c(-c3ccccc3)[nH]2)cc1OC
Completion: 447

Prompt: absorption maximum for CN(CCO)c1ccc(/C=C/C2=C(C#N)C(C(C#N)C#N)OC2(C)C)cc1 (stereo not given) ?
Completion: 562

Prompt: Fill in: absorption maximum of CCN(CC)c1ccc2cc(-c3csc(NC(C)=O)c3C#N)c(=O)oc2c1 is ___
Completion: 402

Prompt: Any idea what its absorption maximum is? The compound is Cc1ccc([B-]2(c3ccc(C)cc3)n3nc(C(F)(F)F)cc3-c3c4ccccc4cc[n+]32)cc1
Completion: 377

Prompt: What measured absorption maximum goes with CCCCCCCCCCCCOc1ccc(C#Cc2ccc(C#Cc3ccc(OCCCCCCCCCCCC)c(OCCCCCCCCCCCC)c3)c3nc4c5ccccc5c5ccccc5c4nc23)cc1OCCCCCCCCCCCC ?
Completion: 461

Prompt: # lookup: absorption maximum of F[B-]1(F)Oc2ccccc2-c2nc(-c3ccccc3)c3cc(Cl)ccc3[n+]21
Completion: 395
